B1: POU domain, class 4, transcription factor 1, residues 266 to 347; numbered along this chain, Q01851 (parent)
chain: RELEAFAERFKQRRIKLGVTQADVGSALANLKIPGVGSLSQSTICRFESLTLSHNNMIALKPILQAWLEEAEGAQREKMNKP

- Variants of: B1
- Protocol notes: abundance fitness (aPCA) (normalised: wild type 0, dead -1); higher = more abundant; growth selection in yeast, the domain comes from the species named
- Condition label: Homo sapiens
Just so you know, the groups by abundance fitness go like this: low interval (below -0.4), middle interval (-0.4 to below -0.1), high interval (-0.1 or more)

Into which bin does this variant go? P62V low interval

Exam item: assign M79K to the correct category. high interval

Bin? L3S middle interval

Further cases:
Given R76E , name the class its abundance fitness places it in. high interval

Which class does E72R fall in? low interval

Band assignment needed for R13G please. high interval

Hi, small favor: classify K81I by its abundance fitness when you get a moment. middle interval

Class? Entry: E69F middle interval

Please report the category associated with L17Q , nothing else. low interval

Band assignment needed for K16P please. low interval

Which category fits this record: D23R middle interval

Which band does F10E fall in? low interval

Bin this entry: S42F middle interval

Kindly identify the class of S53L . low interval

# bin lookup: classify I58E by its abundance fitness high interval

Please indicate the class for A7G based on its abundance fitness. low interval

The entry to classify is S42C ; which class holds it? high interval

Which class holds I33Q ? middle interval

Band for T51S ? high interval
